System: pERK in NCI-H358 cells
Assay: Cell-based pERK HTRF assay
Settings: Homo sapiens, 0.5 h, 30 min incubation
Description: pERK HTRF assays (Perkin Elmer) were used to determine the effectiveness of compounds of the present disclosure in disrupting KRAS G12C protein/effector signaling in cells. […] Samples were homogenized by pipetting up and down and then transferred (16 μL of cell lysates) from the 96-well cell culture plate to two wells of the HTRF 384-well detection plate containing the antibody solution. […] Therefore, readings can be made between 4 and 24 h of incubation. […]
Item-by-item account of IC50

C=CC(=O)N1CCC(N(C)c2nc(OC[C@@H]3CC4(CC4)CN3C)nc3c(F)c(-c4ccc(F)c5sc(N)c(C#N)c45)ncc23)[C@H]1COC (stereo partly drawn) has a reported IC50 of 100 to 1000 nM

Data point: C=CC(=O)N1CC[C@@H](N(C)c2nc(OC[C@@]34CCCN3C[C@H](F)C4)nc3c(F)c(-c4c(F)cc(F)c5sc(N)nc45)ncc23)C1 ; IC50 = ≤ 100 nM

Kindly note the recorded IC50 for C=CC(=O)N1CC[C@@H](N(C)c2nc(OC[C@@]34CCCN3C[C@H](F)C4)nc3c(F)c(-c4ccc(F)c5sc(N)c(C#N)c45)ncc23)[C@H]1C , which is ≤ 100 nM

GET /value?item= C=CC(=O)N1CCC(N(C)c2nc(OC[C@@H]3CC4(CC4)CN3C)nc3c(F)c(-c4ccc(F)c5sc(N)c(C#N)c45)ncc23)[C@H]1C (stereo partly drawn) &field=IC50 returns 100 to 1000 nM

C=CC(=O)N1CCC(N(C)c2nc(OC[C@@]34CCCN3C[C@H](F)C4)nc3c(F)c(-c4ccc(F)c5sc(N)c(C#N)c45)ncc23)[C@H]1CC (stereo partly drawn) has a reported IC50 of 100 to 1000 nM

IC50 recorded for this molecule, C=CC(=O)N1CCC(N(CC)c2nc(OC[C@@]34CCCN3C[C@H](F)C4)nc3c(Cl)c(-c4ccc(F)c5sc(N)c(C#N)c45)ncc23)[C@H]1C (stereo partly drawn) , is ≤ 100 nM

----------
Biological target: Avi-KRAS G12C (1-169) GppNHp/RAF1 RBD-3×FLAG (52-151) (Homo sapiens, UniProt P01116, G12C)
Construct: Avi-KRAS G12C (1-169) GppNHp
Sequence (P01116 1-169 isoform P01116-2 G12C limits assumed): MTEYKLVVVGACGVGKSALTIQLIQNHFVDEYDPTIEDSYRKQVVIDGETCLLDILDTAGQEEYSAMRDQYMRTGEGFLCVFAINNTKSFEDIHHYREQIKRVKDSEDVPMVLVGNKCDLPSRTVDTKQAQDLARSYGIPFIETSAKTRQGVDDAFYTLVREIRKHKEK
Assay: KRAS G12C-effector (RAF1 RBD) protein:protein interaction HTRF disruption assay
Conditions: PPI HTRF
pIC50: −log10 of the molar value.
In this section, each of the molecules is paired with its reported pIC50.

| Molecule | pIC50 |
| --- | --- |
| C=CC(=O)N1CC[C@@H](N(C)c2nc(OCCOC)nc3c(F)c(-c4ccc(F)c5sc(N)c(C#N)c45)ncc23)[C@H]1C | 5.30 to 6.30 |

GET /value?item= C=CC(=O)N1CC[C@@H](N(C)c2nc(OC[C@@]34CCCN3C[C@H](F)C4)nc3c(F)c(-c4ccc(F)c5sc(N)c(C#N)c45)ncc23)[C@H]1CC &field=pIC50 returns ≥ 6.30

Sample C=CC(=O)N1CCC(N(C)c2nc(OC[C@@]34CCCN3C[C@H](F)C4)nc3c(F)c(-c4ccc(F)c5sc(N)c(C#N)c45)ncc23)[C@H]1CC (stereo partly drawn) ; pIC50 observed: ≥ 6.30

get_value(item= C=CC(=O)N1CC[C@@H](N(C)c2nc(OC[C@@]34CCCN3C[C@H](F)C4)nc3c(F)c(-c4ccc(F)c5sc(N)c(C#N)c45)ncc23)[C@@H]1C , readout=pIC50) returns ≥ 6.30

Record C=CC(=O)N1CC[C@@H](N(C)c2nc(OC[C@@]34CCCN3C[C@H](F)C4)nc3c(Cl)c(-c4ccc(F)c5sc(N)c(C#N)c45)ncc23)[C@@H]1CC , field pIC50: 5.30 to 6.30

Query C=CC(=O)N1CCC(N(C)c2nc(OC[C@@H]3C[C@@H](OC)CN3C)nc3c(F)c(-c4ccc(F)c5sc(N)c(C#N)c45)ncc23)[C@H]1COC (stereo partly drawn) yields pIC50 of ≥ 6.30

----------
Molecular target: Avi-KRAS G12C (1-169) GppNHp/RAF1 RBD-3×FLAG (52-151) (Homo sapiens, UniProt P01116, G12C)
Construct: Avi-KRAS G12C (1-169) GppNHp
Assay: KRAS G12C-effector (RAF1 RBD) protein:protein interaction HTRF disruption assay
Conditions: PPI HTRF
Measured Quantity: IC50

In the examples that follow, each entry is paired with its recorded IC50.
| Molecule | Target System | Measured Quantity | Result |
| --- | --- | --- | --- |
| C=CC(=O)N1CC[C@@H](N(C)c2nc(OC[C@@]34CCCN3C[C@H](F)C4)nc3c(Cl)c(-c4ccc(F)c5sc(N)c(C#N)c45)ncc23)[C@@H]1C | Avi-KRAS G12C (1-169) GppNHp/RAF1 RBD-3×FLAG (52-151) (Homo sapiens, UniProt P01116, G12C) | IC50 | ≤ 500 nM |
| C=CC(=O)N1C[C@H](F)[C@@H](N(C)c2nc(OC[C@@]34CCCN3C[C@H](F)C4)nc3c(F)c(-c4ccc(F)c5sc(N)c(C#N)c45)ncc23)C1 | Avi-KRAS G12C (1-169) GppNHp/RAF1 RBD-3×FLAG (52-151) (Homo sapiens, UniProt P01116, G12C) | IC50 | ≤ 500 nM |
| C=CC(=O)N1CC[C@@H](N(CC)c2nc(OC[C@@]34CCCN3C[C@H](F)C4)nc3c(Cl)c(-c4ccc(F)c5sc(N)c(C#N)c45)ncc23)[C@H]1CC | Avi-KRAS G12C (1-169) GppNHp/RAF1 RBD-3×FLAG (52-151) (Homo sapiens, UniProt P01116, G12C) | IC50 | ≤ 500 nM |
| C=CC(=O)N1CC[C@@H](N(C)c2nc(OC[C@@]34CCCN3C[C@H](F)C4)nc3cc(-c4ccc(F)c5sc(N)c(C#N)c45)c(C(F)(F)F)nc23)[C@H]1C | Avi-KRAS G12C (1-169) GppNHp/RAF1 RBD-3×FLAG (52-151) (Homo sapiens, UniProt P01116, G12C) | IC50 | ≤ 500 nM |
| C=CC(=O)N1CC[C@@H](N(C)c2nc(OCCO)nc3c(F)c(-c4ccc(F)c5sc(N)c(C#N)c45)ncc23)[C@H]1C | Avi-KRAS G12C (1-169) GppNHp/RAF1 RBD-3×FLAG (52-151) (Homo sapiens, UniProt P01116, G12C) | IC50 | 5000 to 20000 nM |

Let us move to another entry and its IC50.
Just so you know, measured IC50 for C=CC(=O)N1CCC(N(C)c2nc(OC[C@@H]3C[C@@H](F)CN3C)nc3c(F)c(-c4ccc(F)c5sc(N)c(C#N)c45)ncc23)[C@H]1COC (stereo partly drawn) came out at ≤ 500 nM

----------
Tested on: pERK in NCI-H358 cells
Test: Cell-based pERK HTRF assay
Settings: Homo sapiens, 0.5 h, 30 min incubation
Measured Quantity: IC50

Known IC50 results, listed for orientation:
| Compound | Target System | IC50 |
| --- | --- | --- |
| C=CC(=O)N1CC[C@@H](N(C)c2nc(OC[C@@]34CCCN3C[C@H](F)C4)nc3c(F)c(-c4ccc(F)c5sc(N)c(C#N)c45)ncc23)[C@@H]1CC | pERK in NCI-H358 cells | 100 to 1000 nM |
| C=CC(=O)N1CCC(N(C)c2nc(OCCO)nc3c(F)c(-c4ccc(F)c5sc(N)c(C#N)c45)ncc23)[C@H]1C (stereo partly drawn) | pERK in NCI-H358 cells | > 1000 nM |

Consider now this further compound.
Entry C=CC(=O)N1CC[C@@H](N(C)c2nc(OC[C@@]34CCCN3C[C@H](F)C4)nc3cc(-c4ccc(F)c5sc(N)c(C#N)c45)c(C(F)(F)F)nc23)C1 : IC50 on pERK in NCI-H358 cells = ≤ 100 nM

----------
Target: Avi-KRAS G12C (1-169) GppNHp/RAF1 RBD-3×FLAG (52-151) (Homo sapiens, UniProt P01116, G12C)
Construct: Avi-KRAS G12C (1-169) GppNHp
Assay: KRAS G12C-effector (RAF1 RBD) protein:protein interaction HTRF disruption assay
Conditions: PPI HTRF
Measured IC50 by item

Worked set:
| Compound | Result |
| --- | --- |
| C=CC(=O)N1CC[C@@H](N(CC)c2nc(OC[C@@]34CCCN3C[C@H](F)C4)nc3c(F)c(-c4ccc(F)c5sc(N)c(C#N)c45)ncc23)[C@@H]1C | ≤ 500 nM |
| C=CC(=O)N1C[C@@H](F)[C@@H](N(C)c2nc(OC[C@@]34CCCN3C[C@H](F)C4)nc3c(F)c(-c4ccc(F)c5sc(N)c(C#N)c45)ncc23)C1 | ≤ 500 nM |
| C=CC(=O)N1CCC(N(CC)c2nc(OC[C@@]34CCCN3C[C@H](F)C4)nc3c(Cl)c(-c4ccc(F)c5sc(N)c(C#N)c45)ncc23)[C@H]1COC (some centres unmarked) | ≤ 500 nM |

# IC50 (compound: C=CC(=O)N1CC[C@@H](N(CC)c2nc(OC[C@@]34CCCN3C[C@H](F)C4)nc3c(Cl)c(-c4ccc(F)c5sc(N)c(C#N)c45)ncc23)[C@@H]1CC ) is 500 to 5000 nM

For C=CC(=O)N1CC[C@@H](N(C)c2nc(OC[C@@H]3CCCN3C)nc3c(F)c(-c4ccc(F)c5sc(N)c(C#N)c45)ncc23)[C@H]1C the compound record lists IC50 as ≤ 500 nM
